Please go through the items and note down their viability at 28.5 h, 10 µM.
Assay: in vitro
Conditions: human, hela cells, % viability
Answer with a number only, understood to be in %.

Noted for `Cc1ccc(C(=O)COC(=O)c2cccc(C)c2O)cc1[N+](=O)[O-]` : its viability at 28.5 h, 10 µM reads 90.5

Noted for Cc1ccc(OC(C)C(=O)Nc2ccc(S(=O)(=O)Nc3cc(C)on3)cc2)cc1 (centres unmarked) : its viability at 28.5 h, 10 µM reads 89.6

Noted for N#Cc1ccc(CN2CCCCC2c2[nH]ncc2C(N)=O)c(Cl)c1 (centres unmarked) : its viability at 28.5 h, 10 µM reads 91.4

Noted for `Cc1ccccc1C(=O)NCC(=O)Nc1cc2ccccc2c(Br)n1` : its viability at 28.5 h, 10 µM reads 89.4

Noted for C[S+]([O-])CCNC(=O)c1cc(-c2ccc(F)cc2)no1 (centres unmarked) : its viability at 28.5 h, 10 µM reads 89.6

The measured values listed here are drawn from paper PMC12040169.
